system: MCA 38 (murine colon); assay: Cytotoxic activity, neutral red assay, MCA 38; type: cell-based; settings: mean ± SEM, read-out: Cytotoxic Activity of Fractions IC50
experimental_readout: pIC50
pIC50 field: float, defined as -log10 of concentration (mol/L).

Exercise: Quick one: pIC50 of O=C1N[C@@H](Cc2ccc(O)cc2)C(=O)N2CCC[C@@H]12 [Compound 1, cyclo (L-Pro-L-Tyr)] ?
Solution: 4.53

---

system: 4T1 H17 (murine breast cancer, high ALDH expression); assay: Cytotoxic activity, neutral red assay, 4T1 H17; type: cell-based; details: mean ± SEM, listed as compound 1, read-out: Cytotoxic Activity of Fractions IC50
experimental_readout: IC50

Exercise: Quick one: IC50 of `O=C1N[C@@H](Cc2ccc(O)cc2)C(=O)N2CCC[C@@H]12` ?
Solution: < 40 µM
